Where a name gives a salt, the structure may show the parent alone.
readout-label: melting point (°C)
Field format: number, assumed °C, no unit text.

Field: example entries. Status: answers known.
| compound | readout-number |
| --- | --- |
| N#Cc1nnc(N2CCNCC2)cc1-c1ccccc1 | 271.6 |
| FC(F)(F)c1nnc(N2CCNCC2)cc1-c1ccc2ccccc2c1 | 128.1 |
| Fc1cc(F)cc(CN2CCN(c3cc(-c4ccccc4)c(C(F)(F)F)nn3)CC2)c1 | 138.8 |
| FC(F)(F)c1nnc(N2CCNCC2)cc1-c1cccc(Cl)c1 | 178.8 |
| Cc1csc(-c2cc(N3CCNCC3)nnc2C(F)(F)F)c1 | 98.1 |
| FC(F)(F)c1nnc(N2CCNCC2)cc1-c1ccc(Br)cc1 | 138.2 |
| CCN1CCN(c2cc(-c3ccccc3)c(C(F)(F)F)nn2)CC1 (as salt: hydrochloric acid salt) [Example E2] | 281.9 |
| CC1CN(c2cc(-c3ccccc3)c(C(F)(F)F)nn2)C(C)CN1 (racemic) (as salt: hydrochloric acid salt) | 273 |

Query: melting point; subject: "FC(F)(F)c1nnc(N2CCNCC2)cc1-c1ccc(Cl)cc1"
198.2
